Hey, just so you know, these numbers are from PubChem BioAssay (NCI).

# collection of GI50 values tested on MDA-MB-435
RESULT_TYPE: GI50

MOLECULE	OBSERVED_VALUE
COc1ccc(-c2nsc3c2NC(=O)CC3c2ccc(F)cc2)cc1 (centres undefined)	513 nM
O=C1/C(=C\c2ccc(F)cc2)CN(C(=O)c2ccc([N+](=O)[O-])cc2)C/C1=C\c1ccc(F)cc1	1830 nM
COC(=O)[C@H]1[C@@H](O)[C@@]2(O)c3c(OC)cc(O[C@@H]4O[C@@H]([C@H](O)CO)CO[C@H]4OC)cc3O[C@@]2(c2ccc(OC)cc2)[C@@H]1c1ccccc1	3.58 nM
C[C@@H](N)C1CCC(C(=O)Nc2ccncc2)CC1 (some centres undefined)	> 100000 nM
COc1cc2c(F)nccc2cc1C(=O)N[C@@H](c1ccc(F)c(Cl)c1)[C@@H]1C[C@@H](O)CN1	2000 nM
CNC(=O)c1c(NC(=O)c2ccc(C(F)(F)F)cc2)sc2c1CCC(=O)C2	818 nM
C/C1=C/C(=O)O[C@@H]2C[C@@H](CC[C@H](C)/C=C\C=C\CC1)O[C@@](O)([C@@H]1CSC(=O)N1CO)C2	290 nM
COc1cc(-c2nc(NC(C)=O)sc2-c2ccnc(NCCNS(=O)(=O)c3ccccc3)n2)ccc1Cl	799 nM
Cc1cc(C(=O)Nc2nc3cccc(Cl)c3n2[C@@H]2CCCCN(C(=O)/C=C/CN(C)C)C2)ccn1	9490 nM
O=C(CCCCCCCn1cc(-c2cccnc2)nn1)Nc1ccccc1-c1ccccc1	305 nM
COc1ccccc1-c1cc(/C=C2\C(=O)Nc3ncc(Br)cc32)cc(Br)c1O	7470 nM
Cc1ncc(C(=O)Nc2ccc(CN3CCN(C)CC3)c(C(F)(F)F)c2)cc1C#Cc1cnc(N)c2cnccc12	26.1 nM
CC(C)CC1C(=O)N2CCC[C@H]2C2(O)O[C@](NC(=O)C3C=C4c5cccc6[nH]c(Br)c(c56)C[C@H]4N(C)C3)(C(C)C)C(=O)N12 (some centres undefined)	16700 nM
C[C@H](N)C(=O)N[C@@H]1[C@H]2C(=C(O)C[C@@H](O)[C@@H]2O)C(=O)O[C@]1(C)C(Cl)Cl	309 nM
CCN(CC)CCCC(C)Nc1cc(-c2ccc(C(F)(F)F)cc2)c(C#N)c2nc3ccccc3n12 (centres undefined)	1670 nM
Cc1cccc(-c2nn3c(c2-c2ccnc4ccc(C(N)=O)cc24)CCC3)n1	> 91400 nM
O=Nc1ccc(O)c2ccccc12	330 nM
O=Cc1ccc(-c2ccc(-c3nc4ccccc4[nH]3)cc2)s1	26400 nM
NCCCCCCCCn1c2c(c3ccccc3c1=O)C(=O)c1ccccc1-2	5630 nM
